target: hNTS1 receptor (Homo sapiens, UniProt P30989); construct: membranes prepared from them; assay: Competitive radioligand binding assay on the hNTS1 receptor; details: IC50 NTS1, displacement of 125I-[Tyr3]-NT, membranes of CHO-K1 cells expressing hNTS1
Sequence (P30989 whole entry): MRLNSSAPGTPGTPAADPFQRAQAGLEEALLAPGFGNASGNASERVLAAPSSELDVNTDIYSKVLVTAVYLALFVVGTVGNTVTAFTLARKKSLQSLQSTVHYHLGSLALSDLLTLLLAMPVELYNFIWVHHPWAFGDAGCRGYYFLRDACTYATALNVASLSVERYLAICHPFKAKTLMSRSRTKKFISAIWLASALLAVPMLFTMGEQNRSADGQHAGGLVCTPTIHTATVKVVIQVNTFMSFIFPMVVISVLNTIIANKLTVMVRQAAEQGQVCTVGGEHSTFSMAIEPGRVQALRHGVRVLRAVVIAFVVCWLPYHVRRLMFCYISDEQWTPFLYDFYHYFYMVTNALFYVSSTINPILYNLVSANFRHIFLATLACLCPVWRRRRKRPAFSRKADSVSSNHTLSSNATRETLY
*1 amine or outer side, *2 acyl side, *3 side chain or, on linkers, in order; H or OH if unused. Where a SMILES comes first, the peptide text is derived from it. Bridges are numbered along the chain shown (N, C = ends). [ ]: non-standard residue; d: D form. ξ: configuration not given here. Ala(9-anthryl) = N[C@@H](Cc1c2ccccc2cc2ccccc12)C(=O)O; ξαMeNle(6-ylidene) = CC(CCCC=[*:3])(N[*:1])C(=O)[*:2]; Phe(4-Br) = N[C@@H](Cc1ccc(Br)cc1)C(=O)O; Ala(cPent) = N[C@@H](CC1CCCC1)C(=O)O; AllylGly = C=CC[C@H](N)C(=O)O
Catalogue of compounds with associated IC50

compound	IC50
CC1(C(=O)N[C@@H](Cc2ccc(O)cc2)C(=O)N[C@@H](CC2CCCC2)C(=O)O)CCCC=CC[C@H](N)C(=O)N[C@@H](CCCCN)C(=O)N[C@@H](CCCCN)C(=O)N1 (stereo partly drawn) [compound 128] (H-[AllylGly]KK[ξαMeNle(6-ylidene)]Y[Ala(cPent)]-OH; staple 1-4)	> 100 µM
CC(C)C[C@H](NC(=O)[C@H](Cc1ccc(Br)cc1)NC(=O)[C@@H]1CC=CC[C@H](N)C(=O)N[C@@H](CCCCN)C(=O)N[C@@H](CCCCN)C(=O)N1)C(=O)O [compound 116, c[G(All)KKG(All)]F(4-bromo)L] (H-[AllylGly]KK[AllylGly][Phe(4-Br)]L-OH; staple 1-4)	> 100 µM
CC(C)C[C@H](NC(=O)[C@H](Cc1c2ccccc2cc2ccccc12)NC(=O)[C@@H]1CC=CC[C@H](N)C(=O)N[C@@H](CCCCN)C(=O)N[C@@H](CCCCN)C(=O)N1)C(=O)O [compound 162, c[G(All)KKG(All)]A(anthryl-) L] (H-[AllylGly]KK[AllylGly][Ala(9-anthryl)]L-OH; staple 1-4)	> 100 µM

Each recorded value in this set is attributed to patent US12358948B2.
